Each entry below carries its reported normalised viability.
- Tested on: BT-474
- METHOD_DESCRIPTION: normalised viability (% of control), CellTiter-Blue; higher = more viable cells (about 100 = DMSO control)
- EXPERIMENTAL_CONTEXT: 10 nM; incubation time: 72 h
Reply numerically in %, unit not repeated.

1. O=C(Nc1ccncc1)C(=O)c1cn(Cc2ccc(Cl)cc2)c2ccccc12 :: 99.9
2. COC(=O)c1ccc2c(c1)NC(=O)/C2=C(\Nc1ccc(N(C)C(=O)CN2CCN(C)CC2)cc1)c1ccccc1 :: 127
3. COc1cc2/c(=N/c3ccc(Br)cc3F)nc[nH]c2cc1OCC1CCN(C)CC1 :: 92.7

Now consider a different compound.
Note to self: normalised viability recorded for Nc1cc(C(F)(F)F)c(-c2cc(N3CCOCC3)nc(N3CCOCC3)n2)cn1 was 129

The origin of these recorded values is the supplement of paper PMC4862054.
